What activity coefficient was measured for each of the following?
assay: activity coefficient (dimensionless); of the first substance listed, at infinite dilution; xn = mol fraction of the nth substance listed; conditions: 313.15 K; 101.33 kPa; Liquid; Chromatography; x1 = 0
Number, no unit, nothing else.

Q: Data request, read-out activity coefficient, for CC#N [acetonitrile] + CC(CC(C)(C)C)CP(=O)([O-])CC(C)CC(C)(C)C.CCCCCCCCCCCCCC[P+](CCCCCC)(CCCCCC)CCCCCC
Ans: 1.34

Q: Entry under review: Cc1ccc(C)cc1 [1,4-dimethylbenzene] + CC(CC(C)(C)C)CP(=O)([O-])CC(C)CC(C)(C)C.CCCCCCCCCCCCCC[P+](CCCCCC)(CCCCCC)CCCCCC . Reported activity coefficient?
Ans: 0.6

Q: // query activity coefficient value for entry C=CCCCCCCCC [1-decene] + CC(CC(C)(C)C)CP(=O)([O-])CC(C)CC(C)(C)C.CCCCCCCCCCCCCC[P+](CCCCCC)(CCCCCC)CCCCCC
Ans: 0.98

Q: Which activity coefficient value belongs to O [water] + CC(CC(C)(C)C)CP(=O)([O-])CC(C)CC(C)(C)C.CCCCCCCCCCCCCC[P+](CCCCCC)(CCCCCC)CCCCCC ?
Ans: 0.26

Q: Quick one: activity coefficient for C=CCCCCC [1-heptene] + CC(CC(C)(C)C)CP(=O)([O-])CC(C)CC(C)(C)C.CCCCCCCCCCCCCC[P+](CCCCCC)(CCCCCC)CCCCCC ?
Ans: 0.77

====

test: activity coefficient (dimensionless); of the first substance listed, at infinite dilution; xn = mol fraction of the nth substance listed; conditions: 323.15 K; 101.33 kPa; Liquid; Chromatography; x1 = 0
Measure: activity coefficient

Q: If you can, please state the reported activity coefficient value of CCCO [propan-1-ol] + CC(CC(C)(C)C)CP(=O)([O-])CC(C)CC(C)(C)C.CCCCCCCCCCCCCC[P+](CCCCCC)(CCCCCC)CCCCCC .
Ans: 0.07

Q: Any idea what its activity coefficient is? The compound is CCCCCCCCC [nonane] + CC(CC(C)(C)C)CP(=O)([O-])CC(C)CC(C)(C)C.CCCCCCCCCCCCCC[P+](CCCCCC)(CCCCCC)CCCCCC
Ans: 1.11

Q: Any idea what its activity coefficient is? The compound is c1ccccc1 [benzene] + CC(CC(C)(C)C)CP(=O)([O-])CC(C)CC(C)(C)C.CCCCCCCCCCCCCC[P+](CCCCCC)(CCCCCC)CCCCCC
Ans: 0.45

Q: Suppose we examine the compound CCCCCCCCCC [decane] + CC(CC(C)(C)C)CP(=O)([O-])CC(C)CC(C)(C)C.CCCCCCCCCCCCCC[P+](CCCCCC)(CCCCCC)CCCCCC ; what activity coefficient value has been reported?
Ans: 1.28

Q: Any idea what its activity coefficient is? The compound is C=CCCCCCCC [1-nonene] + CC(CC(C)(C)C)CP(=O)([O-])CC(C)CC(C)(C)C.CCCCCCCCCCCCCC[P+](CCCCCC)(CCCCCC)CCCCCC
Ans: 0.95

Q: For the compound Cc1ccccc1 [toluene] + CC(CC(C)(C)C)CP(=O)([O-])CC(C)CC(C)(C)C.CCCCCCCCCCCCCC[P+](CCCCCC)(CCCCCC)CCCCCC , what activity coefficient is on record?
Ans: 0.51

The measured values listed here are drawn from the NIST ThermoML archive (doi:10.1016/j.jct.2019.05.011).
